# System: Escherichia coli TOP10;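 note: peptides expressed intracellularly from a pBAD plasmid library in pooled LB shake-flask culture, induced with 0.3% L-arabinose, DNA abundance read by NGS, three biological replicates, DESeq2 with apeglm shrinkage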
# methodSummary: shrunken log2 fold change of peptide-encoding DNA abundance (4.5 h post-induction vs induction); higher = less antimicrobial activity (less host growth inhibition)
# conditionContext: time post-induction: 4.5 h; library: site-saturation at positions 5, 18, 19, 20
measurementName: shrunken log2 fold change

[[record]]
seq = "RRIRQRPPRLPRPRPRPRPTPRP"
assaytarget = "Escherichia coli TOP10"
result = 0.554

[[record]]
seq = "RRIRHRPPRLPRPRPRPAEYPRP"
assaytarget = "Escherichia coli TOP10"
result = 0.034

[[record]]
seq = "RRIRPRPPRLPRPRPRPWKQPRP"
assaytarget = "Escherichia coli TOP10"
result = 0.0524

[[record]]
seq = "RRIRWRPPRLPRPRPRPDSNPRP"
assaytarget = "Escherichia coli TOP10"
result = -0.189

[[record]]
seq = "RRIRPRPPRLPRPRPRPIAYPRP"
assaytarget = "Escherichia coli TOP10"
result = -0.0833

[[record]]
seq = "RRIRERPPRLPRPRPRPIDDPRP"
assaytarget = "Escherichia coli TOP10"
result = 0.0583

[[record]]
seq = "RRIRRRPPRLPRPRPRPCIFPRP"
assaytarget = "Escherichia coli TOP10"
result = -0.0526

[[record]]
seq = "RRIRPRPPRLPRPRPRPLCQPRP"
assaytarget = "Escherichia coli TOP10"
result = -0.116

[[record]]
seq = "RRIRGRPPRLPRPRPRPGLEPRP"
assaytarget = "Escherichia coli TOP10"
result = 1.1

[[record]]
seq = "RRIRRRPPRLPRPRPRPMWGPRP"
assaytarget = "Escherichia coli TOP10"
result = 0.0327

[[record]]
seq = "RRIRLRPPRLPRPRPRPQCLPRP"
assaytarget = "Escherichia coli TOP10"
result = -0.455

[[record]]
seq = "RRIRFRPPRLPRPRPRPSTIPRP"
assaytarget = "Escherichia coli TOP10"
result = -0.45

[[record]]
seq = "RRIRQRPPRLPRPRPRPSNPPRP"
assaytarget = "Escherichia coli TOP10"
result = 0.0169

[[record]]
seq = "RRIRSRPPRLPRPRPRPIYGPRP"
assaytarget = "Escherichia coli TOP10"
result = -0.306

[[record]]
seq = "RRIRLRPPRLPRPRPRPCSKPRP"
assaytarget = "Escherichia coli TOP10"
result = -0.0788

